SYSTEM: glutathione-S-transferase (GST) tagged LXRbeta LBD (ligand binding domain) (Homo sapiens, UniProt P55055)
Construct: purchased Invitrogen pv4658
Sequence (P55055 222-460 limits assumed): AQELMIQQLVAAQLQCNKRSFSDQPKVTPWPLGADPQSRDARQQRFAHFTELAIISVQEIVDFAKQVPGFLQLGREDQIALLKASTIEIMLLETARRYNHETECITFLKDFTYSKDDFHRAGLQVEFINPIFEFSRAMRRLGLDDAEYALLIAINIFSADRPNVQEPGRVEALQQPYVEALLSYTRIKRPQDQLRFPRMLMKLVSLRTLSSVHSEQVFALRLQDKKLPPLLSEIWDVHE
RUN_DESCRIPTION: LanthaScreen TR-FRET Liver X Receptor Coactivator Assay, LXR beta
Type: biochemical
CONDITION_SUMMARY: read-out: LXR beta actiivty at max dose, efficacy (% Emax) in relation to reference dual agonist T0901317
Experimental: While running the LanthaScreen™ TR-FRET Liver X Receptor Coactivator Assay, LXR alpha-LBD or LXR beta-LBD was added to ligand test compounds followed by addition of a mixture of a fluorescein-labelled coactivator peptide and terbium-conjugated anti-GST antibody. After an incubation period at room temperature, TR-FRET (time-resolved fluorescence resonance energy transfer) was measured using a filter-based instrument capable of TR-FRET, e.g. PerkinElmer Envision.
MEASUREMENT_NAME: Emax (%)
Supply the numeric figure in %, leaving out any unit text.

Challenge: Entry CCc1cccc([C@@](O)(C(=O)N2CCC(C[C@H]3C[C@@H](Oc4ccc(C(=O)N(C)C)c(Cl)c4)C3)CC2)C(F)(F)F)c1 (single isomer, unassigned) : reported Emax = ?
Response given: 120

Challenge: Entry CN(C)C(=O)c1ccc(OCCCCC2CCN(S(=O)(=O)c3ccccc3C(F)(F)F)CC2)nc1Cl : reported Emax = ?
Response given: 138

Challenge: Entry CNC(=O)c1ccc(OCCCCC2CCN(C(=O)[C@](O)(c3cccc(OC)c3)C(F)(F)F)CC2)cc1Cl (single isomer, unassigned) : reported Emax = ?
Response given: 91

Challenge: Entry CC(C[C@H]1CC12CCN(C(=O)C1(c3ccccc3)CCC1)CC2)Oc1ccc(C(=O)N(C)C)c(Cl)c1 (single isomer, unassigned) : reported Emax = ?
Response given: 110

Challenge: Entry CN(C)C(=O)c1ccc(OCCCC2CC23CCN(C(=O)C2(c4ccccc4)CCCC2)CC3)cc1Cl (single isomer, unassigned) : reported Emax = ?
Response given: 86

Challenge: Entry CN(C)C(=O)c1ccc(OCCC2CC23CCN(S(=O)(=O)C(C)(C)c2ccccc2)CC3)cc1Cl (single isomer, unassigned) : reported Emax = ?
Response given: 26

====

SYSTEM: glutathione-S-transferase (GST) tagged LXRbeta LBD (ligand binding domain) (Homo sapiens)
Construct: purchased Invitrogen pv4658
RUN_DESCRIPTION: LanthaScreen TR-FRET Liver X Receptor Coactivator Assay, LXR beta
Format: biochemical
CONDITION_SUMMARY: read-out: LXR beta actiivty at max dose, efficacy (% Emax) in relation to reference dual agonist T0901317
Hi there, I'd appreciate the recorded Emax for every entry that follows.
Supply the numeric figure in %, leaving out any unit text.

Challenge: Entry CN(C)C(=O)c1ccc(OCCCC2CCN(C(=O)c3c(F)cccc3F)CC2)nc1Cl : reported Emax = ?
Response given: 77

Challenge: Entry O=C(NC1CC1)c1ccc(OCCCCC2CCN(C(=O)[C@](O)(c3ccccc3)C(F)(F)F)CC2)cc1Cl (single isomer, unassigned) : reported Emax = ?
Response given: 68

Challenge: Entry CC(C)(C)OC(=O)NC1CN(C(=O)c2ccc(OCCCCC3CCN(C(=O)[C@](O)(c4ccccc4)C(F)(F)F)CC3)cc2Cl)C1 (single isomer, unassigned) : reported Emax = ?
Response given: 56

Challenge: Entry CN(C)C(=O)c1ccc(OCCC2CC3(CCN(C(=O)C(C)(C)c4ccccc4)CC3)C2)cc1Cl : reported Emax = ?
Response given: 90

Challenge: Entry CC(C)N(C)C(=O)c1ccc(OCCCCC2CCN(C(=O)[C@](O)(c3ccccc3)C(F)(F)F)CC2)cc1Cl (single isomer, unassigned) : reported Emax = ?
Response given: 50

Challenge: Entry CN(C)C(=O)c1ccc(OCCCCC2CCN(C(=O)C(C)(C)c3ccccc3)CC2)cc1Cl : reported Emax = ?
Response given: 64

====

SYSTEM: glutathione-S-transferase (GST) tagged LXRalpha LBD (ligand binding domain) (Homo sapiens)
Construct: purchased Invitrogen pv4655
RUN_DESCRIPTION: biochemical
CONDITION_SUMMARY: read-out: LXR alpha actiivty at max dose, efficacy (% Emax) in relation to reference dual agonist T0901317
Rule: Emax below 20% gives 1. Equal to or above 20% gives -1.

Challenge: Lab log: compare recorded Emax with 20%; is it strictly lower for CN(C)C(=O)c1ccc(OCC[C@@H]2CC23CCN(C(=O)C(O)(c2cccc4c2OC(F)(F)O4)C(F)(F)F)CC3)cc1Cl (single isomer, unassigned) [Example 12-16] ?
Response given: 1

Challenge: Lab log: compare recorded Emax with 20%; is it strictly lower for COc1cccc([C@](O)(C(=O)N2CCC3(CC2)C[C@H]3CCCOc2ccc(C(=O)N(C)C)c(Cl)c2)C(F)(F)F)c1 (single isomer, unassigned) [Example 14-4] ?
Response given: 1

Challenge: Lab log: compare recorded Emax with 20%; is it strictly lower for CN(C)C(=O)c1ccc(OCCC2CC3(CCN(C(=O)C(C)(C)c4ccccc4)CC3)C2)cc1Cl [Example 34-2] ?
Response given: -1

Challenge: Lab log: compare recorded Emax with 20%; is it strictly lower for CN(C)C(=O)c1ccc(OCCC[C@@H]2CC23CCN(C(=O)[C@@](O)(c2ccccc2)C(F)(F)F)CC3)nc1Cl (single isomer, unassigned) [Example 15-2] ?
Response given: -1

Challenge: Lab log: compare recorded Emax with 20%; is it strictly lower for CNC(=O)c1ccc(OCC[C@@H]2C[C@@H]2C2CCN(C(=O)[C@](O)(c3cccc(OC)c3)C(F)(F)F)CC2)cc1Cl (single isomer, unassigned) [Example 10-5] ?
Response given: 1

Challenge: Lab log: compare recorded Emax with 20%; is it strictly lower for CC(CCCOc1ccc(C(=O)N(C)C)c(Cl)c1)C1CCN(C(=O)C(O)(c2ccccc2)C(F)(F)F)CC1 (single isomer, unassigned) [Example 26-2] ?
Response given: -1

Challenge: Lab log: compare recorded Emax with 20%; is it strictly lower for CCc1cccc(C(O)(C(=O)N2CCC(CCCCOc3ccc(C(=O)N(C)C)c(Cl)c3)CC2)C(F)(F)F)c1 (single isomer, unassigned) [Example 3-12] ?
Response given: 1

Challenge: Lab log: compare recorded Emax with 20%; is it strictly lower for CN(C)C(=O)c1ccc(OCC(C)(C)CCC2CCN(C(=O)C(O)(c3ccccc3)C(F)(F)F)CC2)cc1Cl (single isomer, unassigned) [Example 29-1] ?
Response given: -1

Challenge: Lab log: compare recorded Emax with 20%; is it strictly lower for COc1cccc([C@@](O)(C(=O)N2CCC(CCCCOc3ccc(C(=O)N(C)C)c(C#N)n3)CC2)C(F)(F)F)c1 (single isomer, unassigned) [Example 4-2] ?
Response given: -1

Challenge: Lab log: compare recorded Emax with 20%; is it strictly lower for CN(C)C(=O)c1ccc(OC2CC(CC3CCN(C(=O)[C@](O)(c4ccccc4)C(F)(F)F)CC3)C2)cc1Cl (single isomer, unassigned) [Example 37-11] ?
Response given: -1

Challenge: Lab log: compare recorded Emax with 20%; is it strictly lower for CN(C)C(=O)c1ccc(OCCC2CC23CCN(C(=O)C2(c4ccc(Br)cc4)COC2)CC3)cc1Cl (single isomer, unassigned) [Example 12-12] ?
Response given: -1

====

SYSTEM: glutathione-S-transferase (GST) tagged LXRalpha LBD (ligand binding domain) (Homo sapiens, UniProt Q13133)
Construct: purchased Invitrogen pv4655
Sequence (Q13133 209-447 limits assumed): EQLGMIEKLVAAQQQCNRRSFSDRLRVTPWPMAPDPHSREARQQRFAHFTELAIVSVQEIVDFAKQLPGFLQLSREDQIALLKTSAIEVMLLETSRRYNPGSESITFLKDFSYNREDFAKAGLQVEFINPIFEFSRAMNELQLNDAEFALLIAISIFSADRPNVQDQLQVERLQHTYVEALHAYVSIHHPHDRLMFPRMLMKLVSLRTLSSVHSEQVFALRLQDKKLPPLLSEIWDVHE
RUN_DESCRIPTION: biochemical
CONDITION_SUMMARY: read-out: LXR alpha actiivty at max dose, efficacy (% Emax) in relation to reference dual agonist T0901317
MEASUREMENT_NAME: Emax (%)
Supply the numeric figure in %, leaving out any unit text.

Challenge: Entry CCOc1cccc([C@@](O)(C(=O)N2CCC(C[C@H]3C[C@@H](Oc4ccc(C(=O)N(C)C)c(Cl)c4)C3)CC2)C(F)(F)F)c1 (single isomer, unassigned) : reported Emax = ?
Response given: 9

Challenge: Entry CN(C)C(=O)c1ccc(OCCCCC2CCN(C(=O)C3(c4ccccc4)CCCO3)CC2)cc1Cl (single isomer, unassigned) : reported Emax = ?
Response given: 0

Challenge: Entry O=C(c1cscn1)N1CCC(CCCCOc2ccc(C(=O)N3CCCC3)c(Cl)c2)CC1 : reported Emax = ?
Response given: 4

Challenge: Entry CN(C)C(=O)c1ccc(O[C@H]2C[C@@H](CC3CCN(C(=O)[C@](O)(c4cc(F)cc(Cl)c4)C(F)(F)F)CC3)C2)cc1Cl (single isomer, unassigned) : reported Emax = ?
Response given: 46

Challenge: Entry CN(C)C(=O)c1ccc(OCCC2CC23CCN(C(=O)C2(c4ccccc4Cl)CCC2)CC3)cc1Cl (single isomer, unassigned) : reported Emax = ?
Response given: 49

Challenge: Entry O=C(c1ccc(OCCCCC2CCN(C(=O)[C@](O)(c3ccccc3)C(F)(F)F)CC2)cc1Cl)N1CCC[C@H]1CO (single isomer, unassigned) : reported Emax = ?
Response given: 42

Challenge: Entry COc1cccc([C@](O)(C(=O)N2CCC(CC[C@H](C)COc3ccc(C(=O)N(C)C)c(Cl)c3)CC2)C(F)(F)F)c1 (single isomer, unassigned) : reported Emax = ?
Response given: 0

Challenge: Entry CN(C)C(=O)c1ccc(OCCCC2CCN(C(=O)[C@](O)(c3ccccc3)C(F)(F)F)CC2)nc1Cl (single isomer, unassigned) : reported Emax = ?
Response given: 28

Challenge: Entry O=C(c1ccc(OCCCCC2CCN(C(=O)C(O)(c3ccccc3)C(F)(F)F)CC2)cc1Cl)N1CCC1 (single isomer, unassigned) : reported Emax = ?
Response given: 10

Challenge: Entry CN(C)C(=O)c1ccc(O[C@H]2C[C@@H](CC3CCN(C(=O)[C@](O)(c4cccc(OC5CC5)c4)C(F)(F)F)CC3)C2)cc1Cl (single isomer, unassigned) : reported Emax = ?
Response given: 2

Challenge: Entry COc1cccc([C@](O)(C(=O)N2CCC3(CC2)C[C@@H]3CCCOc2ccc(C(=O)N(C)C)c(Cl)c2)C(F)(F)F)c1 (single isomer, unassigned) : reported Emax = ?
Response given: 46
